Assay: Quantitative High-Throughput drug screen in 47 multiple myeloma cell lines against the NCATS MIPE library collection: INA6_PLB cell viability assay (AID 1918965; further: nearly all actives have a fitted effect of over 55% in size)
Conditions: INA6 myeloma viability, CellTiter-Glo ATP luminescence, 48 h; series mostly up to 45.8 µM
Inconclusive results are not listed. Active and inactive are the calls of the source. The call rests on the fitted dose curve; in most records, active means well fitted cell-killing curve with a large enough effect; inconclusive means small, poorly fitted or top-dose-only effect, or effect the other way; inactive means no such curve, though single readings can be large or run the other way.
Outcome codes: active, inactive

{"columns": ["Compound", "Class Assignment"],
 "data": [
  ["O=C(O)c1ccc2cc(-c3ccc(O)c(C45CC6CC(CC(C6)C4)C5)c3)ccc2c1", "active"],
  ["COc1ccc(C=Cc2cc(OC)c(OC)c(OC)c2)cc1O", "inactive"],
  ["Cc1[nH]c2ccccc2c1CCNCc1ccc(C=CC(=O)NO)cc1", "active"],
  ["CC(C)c1ccccc1Cc1cc(C(=O)Nc2ccc(S(=O)(=O)c3ccccc3C(C)(C)C)cc2)c(O)c(O)c1O", "active"],
  ["Cc1ccc(C(N)=O)cc1Nc1nccc(-c2cn(C(C)C)c3cnccc23)n1", "active"],
  ["OCCCNc1cc(-c2ccnc(Nc3cccc(Cl)c3)n2)ccn1", "active"],
  ["COc1ccc(C(=O)CC2(O)C(=O)Nc3c(Cl)ccc(Cl)c32)cc1 (stereo not drawn)", "active"],
  ["CC(C)c1cc(C(=O)N2Cc3ccc(CN4CCN(C)CC4)cc3C2)c(O)cc1O", "active"]
]}
